Cited source for all entries: PubChem BioAssay AID651744

# protocol: viability loss of mouse 3T3 cells – cell-based, cherry-pick, single point, set 2, cytotoxicity control, confirmation (AID 651744);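 further: 0% = median of neutral control wells and 100% = median of positive control wells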
# settings: NIH/3T3 viability, CellTiter-Glo ATP luminescence, 90 h; at 24.9 µM; active compounds read high
The whole screen tested about 5,600 compounds, of which about 3,100 (55%) were called active. Roughly 3% stayed inconclusive and do not appear here. The set was probably picked from earlier hits. These entries were drawn from the full list.
reported-endpoint: inhibition (%)

C[C@@H]1CN([C@@H](C)CO)C(=O)c2cc(NC(=O)Nc3ccc4c(c3)OCO4)ccc2O[C@@H]1CN(C)Cc1ccc(Oc2ccccc2)cc1 : 103
C[C@@H]1CN([C@@H](C)CO)C(=O)c2cc(NC(=O)Cc3ccccc3)ccc2O[C@@H]1CN(C)Cc1ccc(Oc2ccccc2)cc1 : 104
C[C@@H]1CN([C@H](C)CO)C(=O)Cc2cc(NC(=O)Cc3ccccc3)ccc2O[C@H]1CN(C)Cc1ccc(Oc2ccccc2)cc1 : 83.1
COCC(=O)N1[C@H](CO)[C@@H](c2ccc(C#Cc3ccccc3F)cc2)[C@@H]1C#N : 19.1
